# PROCEDURE_SUMMARY: Metabolic stability in human liver microsomes assessed as intrinsic clearance
# Type: ADME, Microsome
# CONDITIONS_USED: read-out: CLH
READOUT_TYPE: CLint scaled (L/h/kg)

Recorded results for 3 molecules are shown here.
MOL | CLint scaled, L/h/kg
Cc1ccc(-n2c(C(=O)NC3CC3)cc3cccnc32)cc1Cl | 10.3
N#Cc1c(F)cc(-n2c(C(=O)NC3CC3)cc3cccnc32)cc1F | 1.89
Cc1ccc(-n2c(C(=O)NC3CC3)nc3cccnc32)cc1Cl | 1.78

A. O=C(NC1CC1)c1cc2cccnc2n1-c1ccc(Cl)c(Cl)c1
B. O=C(c1cc2cccnc2n1-c1cc(F)c(Cl)c(F)c1)N1CC(F)(F)C1
C. O=C(c1nc2cccnc2n1-c1ccc(Cl)c(Cl)c1)N1CC(F)(F)C1
Query block: Arrange the 3 molecules from largest to smallest CLint scaled. Labels, requested order.
Result block: A, C, B
(A: 10.7 L/h/kg, C: 5.83 L/h/kg, B: 2 L/h/kg)

---

# PROCEDURE_SUMMARY: Metabolic stability in mouse liver microsomes assessed as intrinsic clearance
# Assay type: ADME, Microsome
# CONDITIONS_USED: read-out: CLH
READOUT_TYPE: CLint scaled (mL/min/kg)

Recorded results for 3 compounds are shown here.
MOL | ASSAY_RESULT
COc1ncc(-n2c(C(=O)N3CC(F)C3)cc3cccnc32)cc1Cl | 134
Cc1ccc(-n2c(C(=O)NC3CC3)nc3cccnc32)cc1Cl | 150
O=C(c1nc2cccnc2n1-c1ccc(Cl)c(Cl)c1)N1CC(F)(F)C1 | 100

P. O=C(c1cc2cccnc2n1-c1cc(F)c(Cl)c(F)c1)N1CC(F)(F)C1
Q. Cc1ccc(-n2c(C(=O)NC3CC3)cc3cccnc32)cc1Cl
R. O=C(NC1CC1)c1cc2cccnc2n1-c1ccc(Cl)c(Cl)c1
Query block: Arrange these 3 compounds in increasing order of CLint scaled. Labels, requested order.
Result block: P, R, Q
(P: 104 mL/min/kg, R: 157 mL/min/kg, Q: 551 mL/min/kg)

---

# EXPERIMENTAL_SYSTEM: 3',5'-cyclic-AMP phosphodiesterase 4B (Homo sapiens)
# Sequence (Q07343 whole entry): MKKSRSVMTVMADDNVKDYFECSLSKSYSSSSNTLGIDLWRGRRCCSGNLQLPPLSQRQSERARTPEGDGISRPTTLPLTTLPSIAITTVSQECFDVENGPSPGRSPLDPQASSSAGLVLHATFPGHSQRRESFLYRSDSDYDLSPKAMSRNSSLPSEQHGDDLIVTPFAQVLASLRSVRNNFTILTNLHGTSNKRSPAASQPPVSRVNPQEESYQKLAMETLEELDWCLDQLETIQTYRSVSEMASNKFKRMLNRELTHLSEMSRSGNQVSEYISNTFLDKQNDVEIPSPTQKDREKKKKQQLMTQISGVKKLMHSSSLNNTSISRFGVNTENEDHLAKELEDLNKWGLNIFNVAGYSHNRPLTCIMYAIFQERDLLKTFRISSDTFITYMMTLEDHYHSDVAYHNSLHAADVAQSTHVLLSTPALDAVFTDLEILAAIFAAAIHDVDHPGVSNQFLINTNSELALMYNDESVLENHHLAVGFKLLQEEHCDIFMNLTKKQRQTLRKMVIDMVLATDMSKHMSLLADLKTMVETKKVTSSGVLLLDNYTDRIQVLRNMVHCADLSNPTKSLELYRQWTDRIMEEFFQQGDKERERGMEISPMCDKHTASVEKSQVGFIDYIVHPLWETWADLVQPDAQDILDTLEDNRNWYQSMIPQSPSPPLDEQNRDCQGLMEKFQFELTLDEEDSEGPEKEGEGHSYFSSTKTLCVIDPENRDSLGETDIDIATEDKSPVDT
# PROCEDURE_SUMMARY: Inhibition of recombinant human C-terminal His-tagged N-terminal GST-tagged PDE4B2 expressed in baculovirus infected Sf9 cells at 10 uM by radioligand binding assay relative to control
READOUT_TYPE: inhibition (%)

Recorded results for 3 molecules are shown here.
MOLECULE | inhibition [%]
Cc1ccc(-c2c(C(=O)NC3CC3)sc3nccnc23)cc1Cl | 46
O=C(NCc1ccco1)c1cc2cccnc2n1-c1ccc(Cl)c(Cl)c1 | 70
Cc1ccc(-c2c(C(=O)NC3CC3)n(C)c3cccnc23)cc1Cl | 56

A. O=C(c1cc2cccnc2n1-c1ccc(Cl)cc1)N1CC(F)(F)C1
B. COc1ccc(-n2c(C(=O)N3CC(F)C3)cc3cccnc32)cc1F
C. O=C(NC1CC(F)(F)C1)c1cc2cccnc2n1-c1ccc(Cl)c(Cl)c1
Query block: Arrange these 3 molecules in increasing order of inhibition. Labels, requested order.
Result block: C, A, B
(C: 23%, A: 47%, B: 77%)

a. O=C(c1cc2cccnc2n1-c1ccnc(F)c1)N1CC(F)(F)C1
b. N#Cc1c(F)cc(-n2c(C(=O)NC3CC(F)C3)cc3cccnc32)cc1F (stereo unspecified)
Query block: In terms of reported inhibition, does a or b have the smaller number? Please identify the chosen entry by its label.
Result block: a
(a: 37%, b: 58%)
